Recorded GI50 for the following molecules
# System: OVCAR-3 ovarian
# TEST_SUMMARY: NCI tumour cell line growth inhibition, 48 h

Qu. State its GI50 on OVCAR-3 ovarian: O=C(c1ccccc1)c1c2n(c3c1cc(O)c1ccccc13)CCN2
Ans. 2.23 µM

Next:
Qu. State its GI50 on OVCAR-3 ovarian: COc1cc(-c2ccc(=O)oc2C#Cc2ccccc2)cc(OC)c1OC
Ans. 36.4 µM

Qu. Also check O=C(NC(Cc1ccccc1)C(=O)CCl)OCc1ccccc1 (configuration not stated)
Ans. 3.65 µM

Qu. Also check Cc1nc2cc(Nc3nc(Nc4ccc(F)cc4)nc(N4CCCC4)n3)ccc2n1Cc1ccccc1
Ans. 1.77 µM

Qu. Also check COc1ccc(/C=C/C(=O)c2ccccc2)cc1OC
Ans. 7.38 µM

Qu. Also check COc1cc(O)c2c(=O)c(OC)c(-c3ccc(OC)c(OC)c3)oc2c1.[Sn]
Ans. > 100 µM

Qu. Also check COc1cccc(/C=C2\CCc3ccccc3C2=O)c1
Ans. 12.9 µM

====

# Test system: A498 renal
# TEST_SUMMARY: NCI tumour cell line growth inhibition, 48 h
Recorded TGI for the following compounds

Example entries begin here.
Qu. If you can, please state the reported TGI value of Nc1nc(Cl)nc2c1ncn2C1OC(CO)C(O)C1O (stereo unspecified) .
Ans. > 100 µM

Qu. Also check COc1cc(/C=C/C2=NN(c3cccc(S(=O)(=O)O)c3)C3(C2)SCC(=O)N3c2nc3ccccc3s2)cc(OC)c1OC (stereo unspecified)
Ans. > 100 µM

Qu. Also check COc1ccc(C=NCCCN=Cc2ccc(OC)cc2O)c(O)c1
Ans. > 100 µM

Qu. Also check Cn1c(=O)c(-c2c(Cl)cccc2Cl)cc2cnc(Nc3ccc(I)cc3)nc21
Ans. < 0.01 µM

Qu. Also check O=C(CBr)NCCc1c[nH]c2ccccc12
Ans. 41.2 µM

Here's the next entry for you.
Qu. If you can, please state the reported TGI value of O=c1sc(-c2nc3ccccc3[nH]2)c(/N=C/c2ccccc2)n1-c1ccccc1 .
Ans. > 100 µM

====

# Tested on: OVCAR-5 ovarian
# TEST_SUMMARY: NCI tumour cell line growth inhibition, 48 h
MEASURED_ENDPOINT: TGI

Qu. If you can, please state the reported TGI value of COc1ccc(/C=C(\C2=NC(=O)CS2)c2nc3ccccc3[nH]2)cc1 .
Ans. > 100 µM

Next:
Qu. If you can, please state the reported TGI value of Cc1cc(C)c(C2=NO[C@@H]3C(=O)N(c4ccc(Cc5ccc(N6C(=O)[C@H]7C(c8c(C)cc(C)cc8C)=NO[C@H]7C6=O)cc5)cc4)C(=O)[C@H]23)c(C)c1 .
Ans. > 100 µM

Qu. Also check CN(C)CCNC(=O)c1cccc2[nH]c(-c3ccc(Cl)cc3)nc12
Ans. 26.4 µM

Qu. Also check CC(C)OC(=O)c1cccnc1/C=N/O
Ans. > 100 µM

Qu. Also check O=C(c1cccnc1)N1N=C(c2ccc3c(c2)OCO3)CC1(O)c1cc(F)c(Cl)cc1Cl (configuration not stated)
Ans. 49.4 µM

Qu. Also check C=CNC(=S)n1nc(-c2ccccc2NC(=O)C(F)(F)F)c(=O)n(C(=S)NC=C)c1=S
Ans. > 100 µM

Qu. Also check c1ccc(Sc2nc(Sc3ccccc3)nc(Sc3ccccc3)n2)cc1
Ans. > 100 µM

Qu. Also check CNC(=O)c1cc(Oc2ccc3nc(NC(=O)Nc4cc(C(F)(F)F)cc(C(F)(F)F)c4)sc3c2)ccn1
Ans. 3.52 µM

Qu. Also check O=C1C(Cl)C(c2ccc([N+](=O)[O-])cc2)N1n1cnc2ccccc2c1=O (configuration not stated)
Ans. > 100 µM

Qu. Also check O=C1c2ccccc2C(=O)c2c(NCC3CO3)cccc21 (configuration not stated)
Ans. > 100 µM

Qu. Also check O=C(O)C1C2CCC(O2)C1C(=O)NCc1cccnc1 (configuration not stated)
Ans. > 100 µM

Qu. Also check C1=CC(=NN=P(c2ccccc2)(c2ccccc2)c2ccccc2)C=C1
Ans. > 100 µM
